B1: CDC25B (parent)
chain: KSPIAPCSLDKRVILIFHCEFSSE

Variants of: B1
Assay: protein stability index of a GFP-peptide fusion (GPS, HEK-293T) (PSI 1-6); higher = more stable;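 also: lentivirally expressed fusions sorted by FACS into six bins by GFP to DsRed ratio, PSI derived from sequencing read proportions per bin multiplied by bin number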
Conditions: c terminus: a fixed tail appended
measured parameter: protein stability index
Respond with the number and no other words.

Answered examples (5):
K1L
1.86
I16S
2.01
E24G
2.09
V13T
2.89
R12P
2.66

QUERY: Record request: protein stability index value, item `A5T`
RESULT: 2.85

QUERY: For `E20I` then?
RESULT: 2.55

QUERY: For `H18K` then?
RESULT: 2.45

QUERY: For `V13L` then?
RESULT: 2.5

QUERY: For `V13R` then?
RESULT: 3.12

QUERY: For `R12D` then?
RESULT: 3.43
